system: Saccharomyces cerevisiae; assay: protein stability index of tFT-peptide fusion (C-terminal peptide) (PSI (0-1 scale)); higher = more stable (slower turnover); settings: genetic background: das1 deletion; temperature: 37 C
Quick rule: protein stability index of at least 0.6 means Y, below that means N.

Example entries begin here.
FSPSPVFVTCRV N
SLIDPLGNLFNS Y
YPGMFLQLVWWI N

### Prompt Can FCALWLCFRLMV be said to have protein stability index at or above 0.6?
### Response N

### Prompt Can VRGAVGGWRLVG be said to have protein stability index at or above 0.6?
### Response Y

### Prompt Can APEWGGGDEWWG be said to have protein stability index at or above 0.6?
### Response Y

### Prompt Can GGGEGVVWVRLG be said to have protein stability index at or above 0.6?
### Response Y

### Prompt Can VGYSLFTFLFCA be said to have protein stability index at or above 0.6?
### Response Y

### Prompt Can VIQKKKKNKITS be said to have protein stability index at or above 0.6?
### Response Y

### Prompt Can SPCSNFLECLSF be said to have protein stability index at or above 0.6?
### Response Y

### Prompt Can RIVLRPPFNSVA be said to have protein stability index at or above 0.6?
### Response Y

* * *

test system: Saccharomyces cerevisiae; assay: protein stability index of tFT-peptide fusion (C-terminal peptide) (PSI (0-1 scale)); higher = more stable (slower turnover); settings: genetic background: wild type; temperature: 30 C
protein stability index overview
Please give the numeric answer without any surrounding text.

Primary Sequence	Observation Type	Measured Value
LAQQLQQDSEAS [SWC5 C-terminal 12 aa]	protein stability index	0.701
WVAHSKTKLATK [CAB2 C-terminal 12 aa]	protein stability index	0.703
QNNSQGFLREII [TDA7 C-terminal 12 aa]	protein stability index	0.693
FRNYRGHYRGRK [SGS1 C-terminal 12 aa]	protein stability index	0.685
PILCTSEDFMGW [RGP1 C-terminal 12 aa]	protein stability index	0.732

### Prompt Write down protein stability index measured for item YCFYINCIMNRR [RRT15 C-terminal 12 aa]
### Response 0.551

### Prompt Write down protein stability index measured for item LYELKGLLGNDS [INP2 C-terminal 12 aa]
### Response 0.673

### Prompt Write down protein stability index measured for item YFNLFTDLSGSK [NEL1 C-terminal 12 aa]
### Response 0.72

### Prompt Write down protein stability index measured for item IIFVVLLCKKSR [ASG7 C-terminal 12 aa]
### Response 0.309

### Prompt Write down protein stability index measured for item LRKNRSLDERYF [YML057C-A C-terminal 12 aa]
### Response 0.657

### Prompt Write down protein stability index measured for item VHPNWSPFEVFK [GCY1 C-terminal 12 aa]
### Response 0.738

### Prompt Write down protein stability index measured for item LYSFNQLEPLQT [GIC2 C-terminal 12 aa]
### Response 0.669

* * *

test system: Saccharomyces cerevisiae; assay: protein stability index of tFT-peptide fusion (C-terminal peptide) (PSI (0-1 scale)); higher = more stable (slower turnover); conditions: genetic background: wild type; temperature: 30 C
Quick rule: protein stability index of at least 0.7 means MET, below that means NOT MET.

Example entries begin here.
AGGSVGEAGSEG NOT MET
PGVWVVILRWWV NOT MET

### Prompt Can DCVRMLREGAGW be said to have protein stability index at or above 0.7?
### Response MET

### Prompt Can KREKKNTYIKKV be said to have protein stability index at or above 0.7?
### Response NOT MET

### Prompt Can SHLKEHREEELE be said to have protein stability index at or above 0.7?
### Response NOT MET

### Prompt Can LSFFFWFIFSLC be said to have protein stability index at or above 0.7?
### Response NOT MET

### Prompt Can ISGTDGVRHFLG be said to have protein stability index at or above 0.7?
### Response NOT MET

### Prompt Can CLLLILCFLCVR be said to have protein stability index at or above 0.7?
### Response NOT MET

### Prompt Can YCGLQSWLGVGG be said to have protein stability index at or above 0.7?
### Response NOT MET

### Prompt Can LLRDRRQETILK be said to have protein stability index at or above 0.7?
### Response NOT MET

### Prompt Can LPILRVVNLMGL be said to have protein stability index at or above 0.7?
### Response NOT MET

### Prompt Can LRPFLFSALPLT be said to have protein stability index at or above 0.7?
### Response NOT MET

### Prompt Can VEASRSCTKLDG be said to have protein stability index at or above 0.7?
### Response NOT MET

### Prompt Can FNEKNKKSTLER be said to have protein stability index at or above 0.7?
### Response NOT MET

### Prompt Can SHLSTLSHPPPP be said to have protein stability index at or above 0.7?
### Response NOT MET

### Prompt Can VVRVSFSFCLSC be said to have protein stability index at or above 0.7?
### Response NOT MET

### Prompt Can TQTLPPPLPPLL be said to have protein stability index at or above 0.7?
### Response NOT MET

### Prompt Can VVYWGFVLGFGA be said to have protein stability index at or above 0.7?
### Response NOT MET

### Prompt Can CGSAIGEARDLG be said to have protein stability index at or above 0.7?
### Response NOT MET

### Prompt Can VVVLCGGSGGVG be said to have protein stability index at or above 0.7?
### Response NOT MET

### Prompt Can ARWQALTHLIVL be said to have protein stability index at or above 0.7?
### Response NOT MET

### Prompt Can RRWIFGEGMSTY be said to have protein stability index at or above 0.7?
### Response MET

### Prompt Can SKSNIAGIRKEL be said to have protein stability index at or above 0.7?
### Response NOT MET

Cited source for all entries: the supplement of paper PMC10724198
